test: 384-well plate pilot, post-Golgi transport modulator project, inhibition of yeast transport mutant growth (AID 636); details: absorbance 615 nm, about 18 h, stronger effect = higher value
The entries below come with measured inhibition values attached.
QUANTITY: inhibition (%)

molecule=CC(=O)O[C@H]1C(=O)[C@]2(C)[C@H]([C@H](OC(=O)c3ccccc3)[C@]3(O)C[C@H](OC(=O)[C@H](O)[C@@H](NC(=O)c4ccccc4)c4ccccc4)C(C)=C1C3(C)C)[C@]1(OC(C)=O)CO[C@@H]1C[C@@H]2O quantity=inhibition units=% recorded_result=0.52
molecule=CC(=O)Nc1ccn(-c2ccccc2)n1 quantity=inhibition units=% recorded_result=0
molecule=CN(Cc1nc(-c2ccncc2)no1)S(=O)(=O)c1ccc(Cl)cc1 quantity=inhibition units=% recorded_result=1.78
molecule="O=C(CSc1nnc(C2COc3ccccc3O2)o1)N1CCCc2ccccc21 (stereo not drawn)" quantity=inhibition units=% recorded_result=-5.26
molecule="COc1ccc(C(O)Cn2c(=N)n(CCCN(C)C)c3ccccc32)cc1 (stereo not drawn)" quantity=inhibition units=% recorded_result=-0.26
molecule=CCCNC(=O)NS(=O)(=O)c1ccc(Cl)cc1 quantity=inhibition units=% recorded_result=-1.17
molecule=COc1cc2c(cc1OC)CN(Cc1nc3ccsc3c(=O)[nH]1)CC2 quantity=inhibition units=% recorded_result=-2.73
molecule=O=C(NC1CCCCCCC1)C1CCN(c2nc3ccccc3o2)CC1 quantity=inhibition units=% recorded_result=7.2
molecule=COc1cc(/C=C/C(=O)CC(=O)/C=C/c2ccc(O)c(OC)c2)ccc1O quantity=inhibition units=% recorded_result=-2.34
molecule="Cc1cccc2c(=O)oc(-c3ccc4c(c3)C(=O)N(CC3CCCO3)C4=O)nc12 (stereo not drawn)" quantity=inhibition units=% recorded_result=-4.25
molecule="Cc1nnc(SCC(=O)Nc2ccc3c(c2)OCCO3)n1CC1CCCO1 (stereo not drawn)" quantity=inhibition units=% recorded_result=-5.14
molecule=CC1(C)CC(=O)C(C=Nc2ccncc2)=C(O)C1 quantity=inhibition units=% recorded_result=-4.19
molecule=Cc1ccc(C(=O)/C=C/Nc2cccc(O)c2)cc1 quantity=inhibition units=% recorded_result=-7.03
molecule=COc1ccc(S(=O)(=O)Nc2ccc(Cl)cn2)c(C)c1C quantity=inhibition units=% recorded_result=-0.93
molecule=N#Cc1ccccc1Cn1c(=O)n(Cc2ccc(C(=O)NCc3ccco3)cc2)c(=O)c2sccc21 quantity=inhibition units=% recorded_result=-1.28
molecule=Cc1ccc(-c2nc(-c3cccnc3)no2)c(C)c1 quantity=inhibition units=% recorded_result=-6.49
molecule=CNC[C@H](O)c1cccc(O)c1 quantity=inhibition units=% recorded_result=-1.56
molecule=Cc1cc(Cl)ccc1OCC(=O)Nn1c(C)ccc1C quantity=inhibition units=% recorded_result=-1.37
molecule="Cc1ccc2c(c1)C(N1CCCC1=O)CC(c1ccco1)N2 (stereo not drawn)" quantity=inhibition units=% recorded_result=-5.6
molecule=O=P(CCNCc1ccco1)(c1ccccc1)c1ccccc1 quantity=inhibition units=% recorded_result=-5.6
molecule="COC(=O)c1ccccc1NC(=O)C12CCC(C)(C(=O)O1)C2(C)C (stereo not drawn)" quantity=inhibition units=% recorded_result=-6.58
molecule="Cc1ccc(-c2cc(C(F)F)nc(NCC3CCCO3)n2)cc1 (stereo not drawn)" quantity=inhibition units=% recorded_result=1.56
molecule=Cc1ccnc(NS(=O)(=O)c2ccc(NC(=O)Cc3cccs3)cc2)n1 quantity=inhibition units=% recorded_result=2.84

---

The entries below come with measured inhibition values attached.
assay: 384-well plate pilot, post-Golgi transport modulator project, inhibition of yeast transport mutant growth (AID 636); conditions: absorbance 615 nm, about 18 h, stronger effect = higher value
Active and inactive are the calls of the source. No stated cut-off is given here; in the data, active means inhibition above about 31%; inactive means the rest.
QUANTITY: inhibition

smiles_notation=N=c1nc(N2CCCCC2)cc(N)n1O recorded_result="-1.17% (inactive)"
smiles_notation=CC(C)Cc1n[nH]c(=O)[nH]1 recorded_result="-6.93% (inactive)"
smiles_notation=Cc1cc(C)nc(SCc2nnc(SCC(=O)Nc3ncc(C)s3)n2Cc2ccco2)n1 recorded_result="-7.87% (inactive)"
smiles_notation=COC(=O)c1cc(Br)ccc1-c1ccc(/C=N/n2nnnc2N)o1 recorded_result="-2.47% (inactive)"
smiles_notation=Cc1cc(C)n2nc[n+](C)c2n1 recorded_result="2.86% (inactive)"
smiles_notation=Cc1cc(C)c2oc(=O)cc(CN3CCOCC3)c2c1 recorded_result="-6.93% (inactive)"
smiles_notation=CN/C=C1\C(=O)C(C)(C)Oc2ccc3ccc(=O)oc3c21 recorded_result="-6.53% (inactive)"
smiles_notation=CC(C)(C)c1ccc(OCC(=O)O)cc1 recorded_result="-5.73% (inactive)"

---

assay: reversal of MRP1-mediated doxorubicin resistance, pilot screen, H69AR cells, doxorubicin co-treatment (AID 601); details: H69AR cells + 2 uM doxorubicin, CellTiter-Glo, 72 h; measured here: viability with 2 uM doxorubicin; at 10 µM; stronger effect = lower value
QUANTITY: viability (%)

compound="CCOCCCNC(=O)C1CC(=O)N(C2CCCC2)C1 (stereo not given)" recorded_result=90.5
compound=CCOC(=O)/C=C(\C)Sc1cc(=O)oc2ccccc12 recorded_result=3.73
compound=COC(=O)c1ccccc1NC(=O)Nc1cccs1 recorded_result=74.9
compound=O=C(Cn1cnc2c(nnn2-c2ccc(F)cc2)c1=O)NCc1ccco1 recorded_result=85.7
compound=O=C(CCCCCn1c(=S)[nH]c2cc3c(cc2c1=O)OCO3)N1CCN(Cc2ccccc2)CC1 recorded_result=55.3

---

The entries below come with measured viability values attached.
assay: reversal of MRP1-mediated doxorubicin resistance, pilot screen, H69AR cells, doxorubicin co-treatment (AID 601); conditions: H69AR cells, CellTiter-Glo, 72 h; compound alone cytotoxicity; at 10 µM
QUANTITY: viability (%)

compound=Cn1c(=O)c2c(ncn2CCO)n(C)c1=O units=% recorded_result=100
compound=COc1ccc(COC(=O)c2n[nH]c3ccccc23)cc1F units=% recorded_result=100
compound=CCOC(=O)c1oc2ccccc2c1NC(=O)c1cccc(OC)c1OC units=% recorded_result=19.6
compound=COc1ccc(OC)c(NC(=O)CCNS(=O)(=O)c2cccs2)c1 units=% recorded_result=99.8
compound=CSc1ccccc1NC(=O)CN(c1ccccc1)S(=O)(=O)N(C)C units=% recorded_result=87.7
compound="CCOc1cc(C(=O)Nc2c3c(nn2C(C)(C)C)CS(=O)C3)cc(OCC)c1OCC (centres undefined)" units=% recorded_result=101
compound=O=C(COC(=O)CCC1CCCC1)Nc1ccc(Cl)cn1 units=% recorded_result=98.6
compound=O=C(Nc1cccc(F)c1)N1CC=C(n2c(=O)[nH]c3ccccc32)CC1 units=% recorded_result=81.9
compound="O=S1(=O)C=CC(Nc2cccc(Cl)c2)C1 (centres undefined)" units=% recorded_result=65.7
compound=CC1(C)CN=C(N2CCN(c3ncnc4sc5c(c34)CCCC5)CC2)S1 units=% recorded_result=77.3
compound=COc1ccc(-c2noc(CCN3C(=O)c4ccccc4C3=O)n2)cc1OC units=% recorded_result=93.9
compound=O=C(CN1CCN(Cc2ccc3c(c2)OCO3)CC1)N1CCc2[nH]c3ccc(F)cc3c2C1 units=% recorded_result=52.5
compound=OC1(c2cccc(C(F)(F)F)c2)CCNCC1 units=% recorded_result=90.8
compound=COc1cc(Cn2c(-c3nonc3N)nc3ccccc32)ccc1C units=% recorded_result=17.8
compound=CC1(C)CC(=O)C(C=Nc2ccncc2)=C(O)C1 units=% recorded_result=106
compound=O=C(NCc1ccco1)c1noc2c1CCCCC2 units=% recorded_result=78.4
compound=COC(=O)Cc1cc(=O)n(-c2ccccc2)[nH]1 units=% recorded_result=87.9
compound="CNCCC(Oc1ccc(C(F)(F)F)cc1)c1ccccc1 (centres undefined)" units=% recorded_result=58.5
compound=COC(=O)c1cccc(S(=O)(=O)N2CCC(C)CC2)c1 units=% recorded_result=93.8

---

The entries below come with measured viability values attached.
test: reversal of MRP1-mediated doxorubicin resistance, pilot screen, H69AR cells, doxorubicin co-treatment (AID 601); conditions: H69AR cells + 2 uM doxorubicin, CellTiter-Glo, 72 h; measured here: viability with 2 uM doxorubicin; at 10 µM; stronger effect = lower value
QUANTITY: viability (%)

molecule=CCCn1c(SCC(=O)NC(C)(C)C)nnc1C(C)C quantity=viability recorded_result=89.1
molecule="COC(=O)C1=C(CSCc2ccco2)NC(=O)NC1c1cc(C)ccc1C (stereo not given)" quantity=viability recorded_result=92
molecule=CCOc1ccc(S(=O)(=O)Nc2ccc(Cl)cn2)c(C)c1C quantity=viability recorded_result=90.4
molecule=CCOC(=O)N1CCC(NC(=O)Cc2ccc(-n3c(=O)[nH]c4ccccc4c3=O)cc2)CC1 quantity=viability recorded_result=88.5
molecule=Cc1ccc(S(=O)(=O)N2CCN(C(=O)CSC3CCCC3)CC2)c(C)c1 quantity=viability recorded_result=88.8
molecule="Cc1cccc(NC(=O)C2CCCN(C(=O)Nc3ccccc3)C2)c1C (stereo not given)" quantity=viability recorded_result=90.8
molecule="COc1ccccc1N1CCN(C(=O)C2CC=CCC2C(=O)O)CC1 (stereo not given)" quantity=viability recorded_result=86.5
molecule="CC(C)CCNC(=O)C(C)N(Cc1ccc(F)cc1)C(=O)c1ccc(CN2CCCCC2)o1 (stereo not given)" quantity=viability recorded_result=95.5
molecule=O=C(Nc1ccc(S(=O)(=O)N2CCCCCC2)cc1)c1ccco1 quantity=viability recorded_result=94.3
molecule=COc1ccc(C)cc1NC(=O)CCC(=O)Nc1ccc2nc(N3CCN(C)CC3)cc(C)c2c1 quantity=viability recorded_result=86.2

Where do the numbers come from? From PubChem BioAssay.
